kon listing for selected binders.
Target: T1, mANGPTL3(17-455)-His (Mus musculus, UniProt Q9R182 17-455)
T1 construct: Bought protein (R&D Systems); also called full-length mature ANGPTL3 from Mus musculus with a C-terminal decahistidine tag
T1 sequence: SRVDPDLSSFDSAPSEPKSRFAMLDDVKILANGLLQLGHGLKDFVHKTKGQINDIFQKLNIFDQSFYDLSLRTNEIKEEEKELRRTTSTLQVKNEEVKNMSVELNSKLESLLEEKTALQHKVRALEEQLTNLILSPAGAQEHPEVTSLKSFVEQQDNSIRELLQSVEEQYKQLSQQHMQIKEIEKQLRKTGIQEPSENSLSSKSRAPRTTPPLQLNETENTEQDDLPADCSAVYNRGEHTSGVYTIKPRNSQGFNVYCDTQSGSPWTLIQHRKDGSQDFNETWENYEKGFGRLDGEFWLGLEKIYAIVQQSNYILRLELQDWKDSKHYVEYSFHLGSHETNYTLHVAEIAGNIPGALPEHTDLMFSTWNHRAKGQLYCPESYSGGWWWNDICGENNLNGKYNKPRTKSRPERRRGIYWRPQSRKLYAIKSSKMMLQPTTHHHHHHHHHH
Test: SPR Biacore, antigen captured, 37C, pH 7.4, HBS-EP
Report the value in M⁻¹ s⁻¹ with no unit label.

binder | kon, M⁻¹ s⁻¹
H4H1292P (antibody, IgG4, V domains shown) VH: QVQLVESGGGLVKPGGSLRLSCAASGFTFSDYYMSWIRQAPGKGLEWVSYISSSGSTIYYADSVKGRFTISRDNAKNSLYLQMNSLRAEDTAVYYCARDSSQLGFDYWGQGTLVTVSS VL: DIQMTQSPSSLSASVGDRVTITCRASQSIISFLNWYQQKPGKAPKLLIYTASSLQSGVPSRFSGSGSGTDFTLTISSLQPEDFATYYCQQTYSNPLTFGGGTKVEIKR | 3.92e+06
H4H1250P (antibody, IgG4, V domains shown) VH: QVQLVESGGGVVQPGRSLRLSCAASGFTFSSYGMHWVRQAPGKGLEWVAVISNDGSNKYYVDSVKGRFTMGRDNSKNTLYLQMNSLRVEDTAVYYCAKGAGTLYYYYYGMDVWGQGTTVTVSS VL: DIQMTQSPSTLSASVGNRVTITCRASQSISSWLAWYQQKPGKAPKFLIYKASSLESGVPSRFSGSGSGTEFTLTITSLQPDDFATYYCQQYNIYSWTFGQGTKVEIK | 3.18e+06

Identify measured kon associated with H1M896N (antibody, V domains shown) VH: EVQLLESGGGLVQPGGSLRLSCAASGFTFSTYAMSWVRQAPGKGLEGVSGISGTGYRTYYADSVKGRFTISRDNSKNSLYLQMNSLRAEDTAVYYCAKDRGLLWFGELTYWGQGTLVTVSS VL: DIQMTQSPSTLSASVGDRVTITCRASQSINNWLAWYQQKPGKAPNLLIYKASSLESGVPSRFSGSGSGTEFTLTISSLQPDDFATYYCQQYNDYWTFGQGTKVEIK
3.62e+06

Taken from patent US20150197564A1.
